System under test: hMAO-B (Homo sapiens)
Sequence (P27338 1-520): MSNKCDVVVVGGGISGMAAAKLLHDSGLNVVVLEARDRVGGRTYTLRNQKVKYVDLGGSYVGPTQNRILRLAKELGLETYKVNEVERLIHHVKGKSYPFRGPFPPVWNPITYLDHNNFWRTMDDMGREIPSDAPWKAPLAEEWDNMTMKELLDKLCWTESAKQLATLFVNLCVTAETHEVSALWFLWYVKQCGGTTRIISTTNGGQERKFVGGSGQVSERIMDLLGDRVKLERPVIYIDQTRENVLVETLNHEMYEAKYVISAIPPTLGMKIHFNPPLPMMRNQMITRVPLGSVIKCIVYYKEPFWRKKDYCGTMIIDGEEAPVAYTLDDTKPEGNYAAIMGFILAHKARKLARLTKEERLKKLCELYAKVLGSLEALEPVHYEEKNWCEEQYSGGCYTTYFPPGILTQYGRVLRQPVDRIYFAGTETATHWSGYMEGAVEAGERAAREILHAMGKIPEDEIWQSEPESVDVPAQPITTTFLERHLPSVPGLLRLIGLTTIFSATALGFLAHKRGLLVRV
Assay remarks: hMAO-B inhibition, Amplex Red fluorometric assay with kynuramine substrate
Assay setup: recombinant hMAO-B, kynuramine 50 µM, mean ± SD of triplicate, max tested 100 µM
Method: The synthesized compounds P1–P18 were evaluated as hMAO inhibitors using the recombinant hMAOs as enzyme sources and kynuramine as substrate. A fluorometric method based on the Amplex® Red reagent (λex = 560 nm; λem = 590 nm) was used to measure hMAO activity. […] All IC50 values were measured in triplicate and are expressed as the mean ± standard deviation (SD). […]
Value kind: IC50 (µM)

>>> df
                                   compound  measured_value
0  CCCCCOc1ccc(C2=NN(C(N)=S)[C@H](c3ccccc3)C2)cc1 [(S)-P5]            2.79
1  CCCCOc1ccc(C2=NN(C(N)=S)[C@@H](c3ccccc3)C2)cc1 [(R)-P4]            0.38
2  C=CCOc1ccc(C2=NN(C(C)=O)C(c3ccccc3)C2)cc1 (centres unmarked)            14.5
3  CC(=O)N1N=C(c2ccc(OCC=C(C)C)cc2)CC1c1ccc(C)cc1 (centres unmarked)            12.2
4  CCCOc1ccc(C2=NN(C(N)=S)[C@@H](c3ccccc3)C2)cc1 [(R)-P3]            2.77

[P] CC(=O)N1N=C(c2ccc(OCC=C(C)C)cc2)CC1c1ccccc1 (centres unmarked)
[Q] CCCCOc1ccc(C2=NN(C(N)=S)[C@H](c3ccccc3)C2)cc1 [(S)-P4]
[R] CC(C)=CCCC(C)=CCOc1ccc(C2=NN(C(N)=S)C(c3ccccc3)C2)cc1 (centres unmarked)
[S] CC(=O)N1N=C(c2ccc(OCC=C(C)C)cc2)CC1c1ccc(Cl)cc1 (centres unmarked)
Query: Order the records so the highest IC50 appears first and the lowest last. Form entry: labels listed in requested order.
Response: R, S, Q, P

[I] CC(=O)N1N=C(c2ccc(OCC=C(C)C)cc2)CC1c1cccc(C)c1 (centres unmarked)
[II] CC(=O)N1N=C(c2ccc(OCC=C(C)C)cc2)CC1c1ccccc1C (centres unmarked)
[III] CCCCCOc1ccc(C2=NN(C(N)=S)[C@@H](c3ccccc3)C2)cc1 [(R)-P5]
[IV] CCCOc1ccc(C2=NN(C(N)=S)[C@H](c3ccccc3)C2)cc1 [(S)-P3]
Query: Hi! Can you put these in order of IC50, lowest number first? Returns: the labels arranged in the requested order.
Response: III, I, II, IV
(III: 0.44 µM, I: 3.22 µM, II: 27.3 µM, IV: 42.5 µM)

[1] CC(=O)N1N=C(c2ccc(OCC=C(C)C)cc2)CC1c1ccccc1Cl (centres unmarked)
[2] CC(=O)N1N=C(c2ccc(OCC=C(C)C)cc2)CC1c1cccc(Cl)c1 (centres unmarked)
Query: Which has the smaller recorded IC50, 1 or 2 ? When you have decided, please share the label of that item.
Response: 2

Reference for the values: paper PMC6384781
